- System: human capsaicin receptor (Homo sapiens, UniProt Q8NER1)
- Construct: A cDNA encoding full length human capsaicin receptor recited in U.S. Pat. No. 6,482,611 was subcloned in the plasmid pBK-CMV
- Sequence (Q8NER1 whole entry): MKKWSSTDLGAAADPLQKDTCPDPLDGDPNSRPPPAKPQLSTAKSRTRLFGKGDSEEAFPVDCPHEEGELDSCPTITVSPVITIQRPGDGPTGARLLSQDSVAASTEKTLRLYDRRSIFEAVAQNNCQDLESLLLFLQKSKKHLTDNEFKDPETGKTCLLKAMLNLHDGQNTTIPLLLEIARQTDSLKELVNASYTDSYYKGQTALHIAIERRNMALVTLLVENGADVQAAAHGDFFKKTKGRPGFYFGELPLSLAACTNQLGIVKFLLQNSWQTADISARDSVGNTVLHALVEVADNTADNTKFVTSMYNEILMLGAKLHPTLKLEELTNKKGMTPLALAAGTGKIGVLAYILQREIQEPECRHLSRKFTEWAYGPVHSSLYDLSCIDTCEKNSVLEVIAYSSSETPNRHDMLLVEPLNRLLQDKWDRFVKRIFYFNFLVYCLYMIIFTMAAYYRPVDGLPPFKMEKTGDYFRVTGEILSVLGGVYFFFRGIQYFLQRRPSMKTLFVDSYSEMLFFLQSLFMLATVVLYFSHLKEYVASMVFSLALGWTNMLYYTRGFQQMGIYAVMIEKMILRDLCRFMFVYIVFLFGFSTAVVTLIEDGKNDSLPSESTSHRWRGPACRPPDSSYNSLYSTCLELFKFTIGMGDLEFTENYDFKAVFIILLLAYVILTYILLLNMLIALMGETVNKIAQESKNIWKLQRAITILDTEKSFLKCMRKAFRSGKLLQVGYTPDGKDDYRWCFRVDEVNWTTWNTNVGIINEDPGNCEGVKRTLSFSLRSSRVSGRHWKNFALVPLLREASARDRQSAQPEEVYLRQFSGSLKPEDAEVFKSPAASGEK
- Experiment notes: Calcium mobilization assay (Example 6)
- Cond: concentration required to provide a 50% decrease in the fluorescence response of cells exposed to one IC50 of capsaicin
- Excerpt: Human embryonic kidney (HEK293) cells were transfected with the pBK-CMV expression construct encoding the full length human capsaicin receptor using standard methods. […] Agonist (e.g., olvanil, capsaicin, or RTX)-induced calcium mobilization is monitored using either FLUOROSKAN ASCENT (Labsystems, Franklin, Mass.) or FLIPR (fluorometric imaging plate reader system, Molecular Devices, Sunnyvale, Calif.) instruments. […]
Endpoint: IC50

Field: example entries. Status: answers known.
CC(C)(C)c1ccc(Nc2cc(N3CCCCC3)nc3cc(-c4ncccc4C(F)(F)F)ccc23)cc1 : ≤ 1 µM
NC(=O)c1cc(Nc2ccc(C(F)(F)F)cn2)c2ccc(-c3ncccc3C(F)(F)F)nc2n1 : ≤ 1 µM
CC(=O)COCc1cc(Nc2ccc(C(F)(F)F)cc2)c2ccc(-c3ncccc3C(F)(F)F)nc2n1 : ≤ 1 µM
C[C@@H]1CN(Cc2cc(Nc3ccc(C(F)(F)F)cn3)c3ccc(-c4ncccc4C(F)(F)F)nc3n2)C[C@H](C)O1 : ≤ 1 µM
CC(C)(C)c1ccc(Nc2cc(N3CCCC3)nc3cc(-c4ncccc4C(F)(F)F)ccc23)cc1 : ≤ 1 µM
CCOc1cc(Nc2ccc(C(C)C)cc2)c2ccc(-c3ncccc3C(F)(F)F)nc2n1 : ≤ 1 µM

Next compound, please.
Query: Query (compound): C[C@@H]1CN(Cc2cc(Nc3ccc(C(F)(F)F)cc3)c3ccc(-c4ncccc4C(F)(F)F)nc3n2)C[C@H](C)O1 ; field requested: IC50
Result: ≤ 1 µM

###

Catalogue of compounds with associated IC50
- System: human capsaicin receptor (Homo sapiens)
- Construct: A cDNA encoding full length human capsaicin receptor recited in U.S. Pat. No. 6,482,611 was subcloned in the plasmid pBK-CMV
- Experiment notes: Calcium mobilization assay (Example 6)
- Cond: concentration required to provide a 50% decrease in the fluorescence response of cells exposed to one IC50 of capsaicin

Query: Quick one: IC50 for Cc1cc(Nc2ccc(C(F)(F)F)cc2)c2ccc(-c3ncccc3C(F)(F)F)cc2n1 [Compound 1] ?
Result: ≤ 1000 nM

Query: Next compound up: COC(C)c1cc(Nc2ccc(C(C)(C)O)cn2)c2ccc(-c3ncccc3C(F)(F)F)nc2n1 (stereo not shown) [Compound 121]
Result: ≤ 1000 nM

Query: Queued: FC(F)(F)c1ccc(Nc2cc(CN3CCCC3)nc3nc(-c4ncccc4C(F)(F)F)ccc23)nc1 [Compound 95]
Result: ≤ 1000 nM

Query: Quick one: CC(=O)c1ccc(Nc2cc(COCC(C)C)nc3nc(-c4ncccc4Cl)ccc23)cc1 [Compound 63]
Result: ≤ 1000 nM

Query: Same for FC(F)(F)c1ccc(Nc2ccnc3nc(-c4ncccc4C(F)(F)F)ccc23)cn1 [Compound 142]
Result: ≤ 1000 nM

Query: // next record CC(C)CCNc1cc(Nc2ccc(C(C)(C)C)cc2)c2ccc(-c3ncccc3C(F)(F)F)cc2n1 [Compound 29]
Result: ≤ 1000 nM
